Hello, the source for this data is ChEMBL document CHEMBL1139279, in case you need it.

Entries and their fold shift
- TARGET DESC: Prostaglandin E2 receptor EP3 subtype (Homo sapiens, UniProt P43115)
- Sequence (P43115 whole entry): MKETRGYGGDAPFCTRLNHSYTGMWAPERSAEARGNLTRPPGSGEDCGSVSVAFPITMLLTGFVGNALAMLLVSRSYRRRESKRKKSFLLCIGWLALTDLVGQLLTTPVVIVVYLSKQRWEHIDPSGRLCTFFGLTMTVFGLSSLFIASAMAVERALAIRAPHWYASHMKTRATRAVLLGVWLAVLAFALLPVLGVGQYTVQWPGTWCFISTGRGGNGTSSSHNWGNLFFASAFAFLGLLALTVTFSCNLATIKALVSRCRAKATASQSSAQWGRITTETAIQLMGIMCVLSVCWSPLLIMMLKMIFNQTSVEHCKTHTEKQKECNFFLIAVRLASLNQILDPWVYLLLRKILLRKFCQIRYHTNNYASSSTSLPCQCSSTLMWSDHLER
- MEASUREMENT NOTES: Displacement of [3H]PGE2 from human EP3 receptor in presence of 10% human serum
Answer as a number with no unit attached.

>>> experimental_value("O=C(COc1cccc2[nH]cc(Sc3ccc4ccccc4c3)c12)NS(=O)(=O)c1cccc(Cl)c1")
2.2
>>> experimental_value("O=C(COc1cccc2[nH]cc(Sc3ccc(Cl)c(Cl)c3)c12)NS(=O)(=O)c1cc(Cl)c(Cl)s1")
1.1
>>> experimental_value("O=C(COc1cccc2[nH]cc(S(=O)(=O)c3ccc(Cl)c(Cl)c3)c12)NS(=O)(=O)c1cc(Cl)c(Cl)s1")
3.6

Query block: Please report the measured fold shift for O=C(COc1cccc2[nH]cc(Sc3ccc(Cl)cc3Cl)c12)NS(=O)(=O)c1cc(Cl)c(Cl)s1
Result block: 0.2

----------
- Species: Homo sapiens
- MEASUREMENT NOTES: Selectivity ratio of IC50 for human IP receptor to IC50 for human EP3 receptor
Entries and their Ratio IC50
Answer as a number with no unit attached.

>>> experimental_value("Cc1ccc(Sc2c[nH]c3cccc(OCC(=O)NS(=O)(=O)c4cc(Cl)c(Cl)s4)c23)c(C)c1")
31600
>>> experimental_value("O=C(COc1cccc2[nH]cc(Sc3ccc4ccccc4c3)c12)NS(=O)(=O)c1cccc(Cl)c1")
1300
>>> experimental_value("O=C(COc1cccc2[nH]cc(S(=O)(=O)c3ccc(Cl)c(Cl)c3)c12)NS(=O)(=O)c1cc(Cl)c(Cl)s1")
2710
>>> experimental_value("O=C(COc1cccc2[nH]cc(Sc3ccc(Cl)c(Cl)c3)c12)NS(=O)(=O)c1cc(Cl)c(Cl)s1")
4480
>>> experimental_value("O=C(COc1cccc2[nH]cc(Sc3ccc(Cl)cc3Cl)c12)NS(=O)(=O)c1cc(Cl)c(Cl)s1")
3350

Please find the next compound below.
Query block: Please report the measured Ratio IC50 for O=C(COc1cccc2[nH]cc(Sc3nc4ccccc4s3)c12)NS(=O)(=O)c1cc(Cl)c(Cl)s1
Result block: 1060

----------
- System: Liver microsomes
- MEASUREMENT NOTES: Metabolic stability in rat liver microsomes at 5 uM after 30 mins
- Assay type: ADME, Microsome
- PARTICULARS: 0.5 h
MEASURED METRIC: Activity (%)
Express the result in % but write the number alone.

// solved cases for Activity follow
>>> experimental_value("O=C(COc1cccc2[nH]cc(S(=O)(=O)c3ccc(Cl)cc3)c12)NS(=O)(=O)c1cc(Cl)c(Cl)s1")
98
>>> experimental_value("O=C(COc1cccc2[nH]cc(Sc3ccc(Cl)cc3Cl)c12)NS(=O)(=O)c1cc(Cl)c(Cl)s1")
0
>>> experimental_value("O=C(COc1cccc2[nH]cc(Sc3ccc(Cl)c(Cl)c3)c12)NS(=O)(=O)c1cc(Cl)c(Cl)s1")
74
>>> experimental_value("O=C(COc1cccc2[nH]cc(S(=O)(=O)c3ccc4ccccc4n3)c12)NS(=O)(=O)c1cc(Cl)c(Cl)s1")
68
>>> experimental_value("O=C(COc1cccc2[nH]cc(Sc3ccc4ccccc4n3)c12)NS(=O)(=O)c1cc(Cl)c(Cl)s1")
35
>>> experimental_value("O=C(COc1cccc2[nH]cc(S(=O)(=O)c3ccc(Cl)cc3Cl)c12)NS(=O)(=O)c1cc(Cl)c(Cl)s1")
72

Query block: Please report the measured Activity for O=C(COc1cccc2[nH]cc(Sc3ccc(Cl)cc3)c12)NS(=O)(=O)c1cc(Cl)c(Cl)s1
Result block: 14

Query block: Please report the measured Activity for O=C(COc1cccc2[nH]cc(S(=O)(=O)c3ccc(Cl)c(Cl)c3)c12)NS(=O)(=O)c1cc(Cl)c(Cl)s1
Result block: 68.8
